molecular target: Chymase, from human skin (Homo sapiens, UniProt P23946); assay: Enzymatic assay, chymase
Where a SMILES comes first, the peptide text is derived from it.
ASSAY_READOUT: Chymase at 100 μM % (%)
Give the value in % but do not write % after it.

Chymase at 100 μM % of CC[C@H](C)[C@@H]1NC(=O)[C@H](CO)NC(=O)[C@H](C)NC(=O)[C@H]([C@@H](C)O)NC(=O)[C@@H]2CSSC[C@H](NC(=O)[C@H](CCC(N)=O)NC(=O)[C@@H]3CCCN3C(=O)[C@@H]3CCCN3C1=O)C(=O)N[C@@H](CCC(N)=O)C(=O)N1CCC[C@@H]1C(=O)N1CCC[C@H]1C(=O)N[C@@H](CCc1ccccc1)C(=O)N2 [Ex. 143] (HELM PEPTIDE1{[O=C([C@H](CCc1ccccc1)N[*:1])[*:2]].C.T.A.S.I.P.P.Q.C.Q.[dP].P}$PEPTIDE1,PEPTIDE1,2:R3-10:R3|PEPTIDE1,PEPTIDE1,1:R1-13:R2$$$V2.0) , assay on Chymase, from human skin (Homo sapiens, UniProt P23946), is 0

---

Molecular target: CathepsinG, from human neutrophils (Homo sapiens)
Sequence (P08311 21-244): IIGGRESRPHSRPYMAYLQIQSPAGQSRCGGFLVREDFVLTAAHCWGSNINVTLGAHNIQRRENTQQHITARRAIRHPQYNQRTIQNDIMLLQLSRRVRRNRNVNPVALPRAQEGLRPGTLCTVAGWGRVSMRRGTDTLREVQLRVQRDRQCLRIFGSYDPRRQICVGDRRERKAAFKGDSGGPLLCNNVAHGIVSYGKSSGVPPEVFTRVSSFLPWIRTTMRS
Experiment: Enzymatic assay, cathepsin G
Conditions: Cathepsin G IC50
Where a SMILES comes first, the peptide text is derived from it.
ASSAY_READOUT: IC50 (nM)
Answer with a number only, understood to be in nM.

CC[C@H](C)[C@@H]1NC(=O)[C@@H]2CCCN2C(=O)[C@@H]2CCCN2C(=O)[C@H](CC(=O)O)NC(=O)[C@H](CO)NC(=O)[C@H](CCCCN)NC(=O)[C@H]([C@@H](C)O)NC(=O)[C@@H]2CSSC[C@H](NC1=O)C(=O)N[C@@H](CC(N)=O)C(=O)N1CCC[C@@H]1C(=O)N1CCC[C@H]1C(=O)N[C@@H](C1CCCCC1)C(=O)N2 [Ex. 37] (HELM PEPTIDE1{[O=C([C@@H](N[*:1])C1CCCCC1)[*:2]].C.T.K.S.D.P.P.I.C.N.[dP].P}$PEPTIDE1,PEPTIDE1,2:R3-10:R3|PEPTIDE1,PEPTIDE1,1:R1-13:R2$$$V2.0)    35

From here, focus on the item given below.
# IC50 (compound: CCCC[C@@H]1NC(=O)[C@@H]2CCCN2C(=O)[C@H]2CCCN2C(=O)[C@H](CC(=O)O)NC(=O)[C@@H]2CSSC[C@H](NC1=O)C(=O)N[C@@H]([C@@H](C)O)C(=O)N[C@@H](CCCCN)C(=O)N[C@@H](CO)C(=O)N[C@@H](CC(=O)O)C(=O)N1CCC[C@H]1C(=O)N1CCC[C@H]1C(=O)N[C@@H]([C@@H](C)CC)C(=O)N2 [Ex. 43] (HELM PEPTIDE1{[Nle].C.T.K.S.D.P.P.I.C.D.[dP].P}$PEPTIDE1,PEPTIDE1,2:R3-10:R3|PEPTIDE1,PEPTIDE1,1:R1-13:R2$$$V2.0) ) is 77

---

target: CathepsinG, from human neutrophils (Homo sapiens); experiment: Enzymatic assay, cathepsin G; conditions: Cathepsin G IC50
Where a SMILES comes first, the peptide text is derived from it.
Listing of entries alongside the reported IC50.
Value expressed in nM; do not type the unit.

CC[C@H](C)[C@@H]1NC(=O)[C@@H]2CCCN2C(=O)[C@@H]2CCCN2C(=O)[C@H](CC(=O)O)NC(=O)[C@H](CO)NC(=O)[C@H](CCCCN)NC(=O)[C@H]([C@@H](C)O)NC(=O)[C@@H]2CSSC[C@H](NC1=O)C(=O)N[C@@H](CO)C(=O)N1CCC[C@@H]1C(=O)N1CCC[C@H]1C(=O)N[C@@H](Cc1ccc(N)cc1)C(=O)N2 [Ex. 9] (HELM PEPTIDE1{[Nc1ccc(C[C@H](N[*:1])C(=O)[*:2])cc1].C.T.K.S.D.P.P.I.C.S.[dP].P}$PEPTIDE1,PEPTIDE1,2:R3-10:R3|PEPTIDE1,PEPTIDE1,1:R1-13:R2$$$V2.0)    105

According to the records, this molecule CC[C@H](C)[C@@H]1NC(=O)[C@@H]2CCCN2C(=O)[C@@H]2CCCN2C(=O)[C@H](CC(=O)O)NC(=O)[C@H](CO)NC(=O)[C@H](CCCCN)NC(=O)[C@H]([C@@H](C)O)NC(=O)[C@@H]2CSSC[C@H](NC1=O)C(=O)N[C@@H](CC(N)=O)C(=O)N1CCC[C@@H]1C(=O)N1CCC[C@H]1C(=O)N[C@@H](CCc1ccccc1)C(=O)N2 [Ex. 27] (HELM PEPTIDE1{[O=C([C@H](CCc1ccccc1)N[*:1])[*:2]].C.T.K.S.D.P.P.I.C.N.[dP].P}$PEPTIDE1,PEPTIDE1,2:R3-10:R3|PEPTIDE1,PEPTIDE1,1:R1-13:R2$$$V2.0) displays IC50 of 48

---

Biological target: Chymase, from human skin (Homo sapiens, UniProt P23946)
Sequence (P23946 22-247): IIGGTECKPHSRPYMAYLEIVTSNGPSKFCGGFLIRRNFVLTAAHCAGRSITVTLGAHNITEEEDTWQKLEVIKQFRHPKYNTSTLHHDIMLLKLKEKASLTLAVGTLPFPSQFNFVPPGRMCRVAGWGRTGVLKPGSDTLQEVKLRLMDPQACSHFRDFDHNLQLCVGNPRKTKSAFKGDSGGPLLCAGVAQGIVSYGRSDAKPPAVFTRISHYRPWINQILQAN
Test: Enzymatic assay, chymase
Where a SMILES comes first, the peptide text is derived from it.
ASSAY_READOUT: Chymase at 100 μM %

Previously resolved entries follow.
CCCC[C@@H]1NC(=O)[C@H]([C@@H](C)O)NC(=O)[C@@H]2CSSC[C@H](NC(=O)[C@H]([C@@H](C)CC)NC(=O)[C@@H]3CCCN3C(=O)[C@@H]3CCCN3C(=O)[C@H](CC(=O)O)NC(=O)[C@H](CO)NC1=O)C(=O)N[C@@H](CCCNC(=N)N)C(=O)N1CCC[C@@H]1C(=O)N1CCC[C@H]1C(=O)N[C@@H]([C@@H](C)CC)C(=O)N2 [Ex. 59] (HELM PEPTIDE1{I.C.T.[Nle].S.D.P.P.I.C.R.[dP].P}$PEPTIDE1,PEPTIDE1,2:R3-10:R3|PEPTIDE1,PEPTIDE1,1:R1-13:R2$$$V2.0)    98.8%
CCCC[C@@H]1NC(=O)[C@@H]2CCCN2C(=O)[C@H]2CCCN2C(=O)[C@H](Cc2ccc(O)cc2)NC(=O)[C@@H]2CSSC[C@H](NC1=O)C(=O)N[C@@H](C)C(=O)N[C@@H](C)C(=O)N[C@@H](CO)C(=O)N[C@@H]([C@@H](C)CC)C(=O)N1CCC[C@H]1C(=O)N1CCC[C@H]1C(=O)N[C@@H](CCC(N)=O)C(=O)N2 [Ex. 86] (HELM PEPTIDE1{[Nle].C.A.A.S.I.P.P.Q.C.Y.[dP].P}$PEPTIDE1,PEPTIDE1,2:R3-10:R3|PEPTIDE1,PEPTIDE1,1:R1-13:R2$$$V2.0)    0%
CC[C@H](C)[C@@H]1NC(=O)[C@@H]2CCCN2C(=O)[C@H]2CCCN2C(=O)[C@H](CCCNC(=N)N)NC(=O)[C@@H]2CSSC[C@H](NC1=O)C(=O)N[C@@H]([C@@H](C)O)C(=O)N[C@@H](CCCCN)C(=O)N[C@@H](CO)C(=O)N[C@@H](CC(=O)O)C(=O)N1CCC[C@H]1C(=O)N1CCC[C@H]1C(=O)N[C@@H](Cc1ccc(O)cc1)C(=O)N2 [Ex. 18] (HELM PEPTIDE1{I.C.T.K.S.D.P.P.Y.C.R.[dP].P}$PEPTIDE1,PEPTIDE1,2:R3-10:R3|PEPTIDE1,PEPTIDE1,1:R1-13:R2$$$V2.0)    32.5%

Sure, the documented Chymase at 100 μM % for CC[C@H](C)[C@@H]1NC(=O)[C@@H]2CCCN2C(=O)[C@@H]2CCCN2C(=O)[C@H](CC(=O)O)NC(=O)[C@H](CO)NC(=O)[C@H](CCCCN)NC(=O)[C@H]([C@@H](C)O)NC(=O)[C@@H]2CSSC[C@H](NC1=O)C(=O)N[C@@H](CO)C(=O)N1CCC[C@@H]1C(=O)N1CCC[C@H]1C(=O)N[C@@H](C1CCCCC1)C(=O)N2 [Ex. 11] (HELM PEPTIDE1{[O=C([C@@H](N[*:1])C1CCCCC1)[*:2]].C.T.K.S.D.P.P.I.C.S.[dP].P}$PEPTIDE1,PEPTIDE1,2:R3-10:R3|PEPTIDE1,PEPTIDE1,1:R1-13:R2$$$V2.0) is 12.1%

Entry CCCC[C@@H]1NC(=O)[C@@H]2CCCN2C(=O)[C@@H]2CCCN2C(=O)[C@H](CC(=O)O)NC(=O)[C@H](CO)NC(=O)[C@H](CCCCN)NC(=O)[C@H]([C@@H](C)O)NC(=O)[C@@H]2CSSC[C@H](NC1=O)C(=O)N[C@@H](CCCNC(=N)N)C(=O)N1CCC[C@@H]1C(=O)N1CCC[C@H]1C(=O)N[C@@H]([C@@H](C)CC)C(=O)N2 [Ex. 57] (HELM PEPTIDE1{I.C.T.K.S.D.P.P.[Nle].C.R.[dP].P}$PEPTIDE1,PEPTIDE1,2:R3-10:R3|PEPTIDE1,PEPTIDE1,1:R1-13:R2$$$V2.0) — recorded Chymase at 100 μM % = 26.9%

The value of Chymase at 100 μM % measured for the compound CCCC[C@@H]1NC(=O)[C@H](Cc2ccccc2)NC(=O)[C@H]2CCCN2C(=O)[C@H](Cc2ccc(O)cc2)NC(=O)[C@@H]2CSSC[C@H](NC1=O)C(=O)N[C@@H]([C@@H](C)O)C(=O)N[C@@H](C)C(=O)N[C@@H](CO)C(=O)N[C@@H]([C@@H](C)CC)C(=O)N1CCC[C@H]1C(=O)N1CCC[C@H]1C(=O)N[C@@H](CCC(N)=O)C(=O)N2 [Ex. 122] (HELM PEPTIDE1{[Nle].C.T.A.S.I.P.P.Q.C.Y.[dP].F}$PEPTIDE1,PEPTIDE1,2:R3-10:R3|PEPTIDE1,PEPTIDE1,1:R1-13:R2$$$V2.0) turned out to be 6.4%

Value of measured Chymase at 100 μM % for the entry CCCC[C@@H]1NC(=O)[C@@H]2CCCN2C(=O)[C@H]2CCCN2C(=O)[C@H](Cc2ccccc2Cl)NC(=O)[C@@H]2CSSC[C@H](NC1=O)C(=O)N[C@@H]([C@@H](C)O)C(=O)N[C@@H](C)C(=O)N[C@@H](CO)C(=O)N[C@@H]([C@@H](C)CC)C(=O)N1CCC[C@H]1C(=O)N1CCC[C@H]1C(=O)N[C@@H](CCC(N)=O)C(=O)N2 [Ex. 144] (HELM PEPTIDE1{[Nle].C.T.A.S.I.P.P.Q.C.[O=C([C@H](Cc1ccccc1Cl)N[*:1])[*:2]].[dP].P}$PEPTIDE1,PEPTIDE1,2:R3-10:R3|PEPTIDE1,PEPTIDE1,1:R1-13:R2$$$V2.0) : 0%

Just so you know, measured Chymase at 100 μM % for CC[C@H](C)[C@@H]1NC(=O)[C@@H]2CCCN2C(=O)[C@@H]2CCCN2C(=O)[C@H](CC(=O)O)NC(=O)[C@H](CO)NC(=O)[C@H](CCCCN)NC(=O)[C@H]([C@@H](C)O)NC(=O)[C@@H]2CSSC[C@H](NC1=O)C(=O)N[C@@H](CC(N)=O)C(=O)N1CCC[C@@H]1C(=O)N1CCC[C@H]1C(=O)N[C@@H](Cc1ccc(N)cc1)C(=O)N2 [Ex. 31] (HELM PEPTIDE1{[Nc1ccc(C[C@H](N[*:1])C(=O)[*:2])cc1].C.T.K.S.D.P.P.I.C.N.[dP].P}$PEPTIDE1,PEPTIDE1,2:R3-10:R3|PEPTIDE1,PEPTIDE1,1:R1-13:R2$$$V2.0) came out at 12%
